The values you see were collected from ChEMBL document CHEMBL4811283.

# Test system: HL-60
# test-description: Cytotoxicity against human HL-60 cells assessed as inhibition of cell growth measured after 72 hrs
# Assay type: functional, cell-based
# measurement-context: HL-60, 72 h

{"columns": ["smiles-structure", "IC50, nM"],
 "data": [
  ["CCc1c2c(nc3ccc(O)cc13)-c1cc3c(c(=O)n1[C@H]2CO)COC(=O)[C@]3(O)CC", 722],
  ["CCc1c2c(nc3ccc(O)cc13)-c1cc3c(c(=O)n1[C@@H]2CN1CCCC1)COC(=O)[C@]3(O)CC", 7],
  ["CCc1c2c(nc3ccc(O)cc13)-c1cc3c(c(=O)n1[C@H]2CN1CCCC1)COC(=O)[C@]3(O)CC", 11],
  ["CCc1c2c(nc3ccc(O)c(CN4CCC4)c13)-c1cc3c(c(=O)n1[C@H]2CO)COC(=O)[C@]3(O)CC", 334]
]}

* * *

# Tested on: A549
# test-description: Cytotoxicity against human A549 cells assessed as inhibition of cell growth measured after 72 hrs
# Assay type: functional, cell-based
# measurement-context: A549, 72 h
Items are presented alongside their recorded IC50.

{"columns": ["smiles-structure", "IC50, µM"],
 "data": [
  ["CCc1c2c(nc3ccc(O)c(CN4CCC4)c13)-c1cc3c(c(=O)n1[C@H]2CO)COC(=O)[C@]3(O)CC", 5.22],
  ["CCc1c2c(nc3ccc(O)cc13)-c1cc3c(c(=O)n1[C@H]2CO)COC(=O)[C@]3(O)CC", 4.27],
  ["CCc1c2c(nc3ccc(O)cc13)-c1cc3c(c(=O)n1[C@@H]2CN1CCCC1)COC(=O)[C@]3(O)CC", 0.272]
]}

* * *

Items are presented alongside their recorded pIC50.
# Tested on: A549
# test-description: Cytotoxicity against human A549 cells assessed as inhibition of cell growth measured after 72 hrs
# Format: functional, cell-based
# measurement-context: A549, 72 h
pIC50: −log10 of the molar value.
measure: pIC50

{"columns": ["compound", "reported"],
 "data": [
  ["CCc1c2c(nc3ccc(O)cc13)-c1cc3c(c(=O)n1C2)COC(=O)[C@]3(O)CC [7-ETHYL-10-HYDROXYCAMPTOTHECIN]", 7.55],
  ["C=c1c2c(CC)c3cc(O)ccc3nc2c2cc3c(c(=O)n12)COC(=O)[C@]3(O)CC", 5.71],
  ["CCc1c2c(nc3ccc(O)cc13)-c1cc3c(c(=O)n1[C@H]2CN1CCCC1)COC(=O)[C@]3(O)CC", 6.69],
  ["CCc1c2c(nc3ccc(OC(=O)N4CCC(N5CCCCC5)CC4)cc13)-c1cc3c(c(=O)n1C2)COC(=O)[C@]3(O)CC", 4.57],
  ["CCc1c2c(nc3ccc(O)c(CO)c13)-c1cc3c(c(=O)n1C2)COC(=O)[C@]3(O)CC", 4.96],
  ["CCc1c2c(nc3ccc(O)c(CN4CCC4)c13)-c1cc3c(c(=O)n1[C@@H]2CO)COC(=O)[C@]3(O)CC", 5.93],
  ["CCc1c2c(nc3ccc(O)c(N(C)CCO)c13)-c1cc3c(c(=O)n1C2)COC(=O)[C@]3(O)CC", 6.39],
  ["CCc1c2c(nc3ccc(O)cc13)-c1cc3c(c(=O)n1[C@@H]2CO)COC(=O)[C@]3(O)CC", 5.18]
]}

* * *

# System: HL-60
# test-description: Cytotoxicity against human HL-60 cells assessed as inhibition of cell growth measured after 72 hrs
# Assay type: functional, cell-based
# measurement-context: HL-60, 72 h
pIC50: −log10 of the molar value.
Please note: Met applies when pIC50 is 7 or greater, and Not met applies otherwise.

{"columns": ["molecule", "qualitative-label"],
 "data": [
  ["CCc1c2c(nc3ccc(O)cc13)-c1cc3c(c(=O)n1C2)COC(=O)[C@]3(O)CC [7-ETHYL-10-HYDROXYCAMPTOTHECIN]", "Met"],
  ["CCc1c2c(nc3ccc(O)cc13)-c1cc3c(c(=O)n1[C@@H]2CO)COC(=O)[C@]3(O)CC", "Not met"],
  ["CCc1c2c(nc3ccc(O)c(N(C)CCO)c13)-c1cc3c(c(=O)n1C2)COC(=O)[C@]3(O)CC", "Met"],
  ["CCc1c2c(nc3ccc(OC(=O)N4CCC(N5CCCCC5)CC4)cc13)-c1cc3c(c(=O)n1C2)COC(=O)[C@]3(O)CC", "Not met"]
]}
